Where do these numbers come from? They come from patent US20250376535A1.

The reader will find reported OD450 values listed item by item below.
assayedSystem: T1, 4-1BB Fc (human, UniProt Q07011 24-183)
T1 construct: also called rh-41BB; 41BB-hFc
T1 sequence (Q07011 24-183): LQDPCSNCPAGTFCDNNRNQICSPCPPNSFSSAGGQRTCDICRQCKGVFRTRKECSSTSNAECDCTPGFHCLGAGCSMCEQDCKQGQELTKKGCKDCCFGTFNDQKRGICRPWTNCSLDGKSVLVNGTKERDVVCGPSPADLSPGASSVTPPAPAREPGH
assayNotes: ELISA, 4-1BB Fc coated, VHH at 0.05 nM

Known OD450 results, listed for orientation:
4-1BB-36 (VHH, not shown: small tags and cut ends) VHH: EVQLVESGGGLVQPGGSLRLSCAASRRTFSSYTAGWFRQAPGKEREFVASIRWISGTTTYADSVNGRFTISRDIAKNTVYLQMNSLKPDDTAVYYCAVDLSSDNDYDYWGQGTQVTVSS	0.078
4-1BB-1 (VHH, not shown: small tags and cut ends) VHH: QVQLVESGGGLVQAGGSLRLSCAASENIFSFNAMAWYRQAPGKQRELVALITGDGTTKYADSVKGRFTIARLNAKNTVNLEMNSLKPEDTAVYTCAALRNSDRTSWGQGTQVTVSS	0.061

Input line: Item under review: 4-1BB-2 (VHH, not shown: small tags and cut ends) VHH: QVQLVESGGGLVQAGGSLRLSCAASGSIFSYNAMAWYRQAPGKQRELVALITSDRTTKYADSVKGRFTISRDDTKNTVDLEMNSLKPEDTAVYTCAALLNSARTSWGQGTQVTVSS . Reported OD450?
Output line: 0.067

Input line: Try this binder too: 4-1BB-10 (VHH, not shown: small tags and cut ends) VHH: EVQLVESGGGLVQAGGSLRLSCAASGAIFSYNGMAWYRQAPGKQREFVAVITPDGTTKYGDSVKGRFTISRDITKNTVDLEMNSLKPEDTAVYTCAALRNSGSTSWGQGTQVTVSS
Output line: 0.065
